Data credit: PubChem BioAssay (NCI)

# Test system: T-47D breast
# measurement_description: NCI-60 one-dose screen, 48 h (100 = growth as untreated, 0 = no growth, -100 = all killed)
# measurement_context: 10 µM unless noted
The panel holds about 83,000 compounds, 20% with a hit somewhere; the sample as a whole holds those more often.
Documented growth across a set of compounds
Form entry: value (%) — number only.

CCN1CCN(Cc2ccc(C(=O)Nc3cccc(C#Cc4cccc5[nH]nc(N)c45)c3)cc2C(F)(F)F)CC1    -67.2
CC(=O)OC[C@@]1(C)C2CC[C@]3(C)C(CC=C4C5CC(C)(C)CC[C@]5(C(=O)Nc5ccc(C)cc5)CC[C@]43C)[C@@]2(C)C[C@@H](OC(C)=O)[C@@H]1OC(C)=O (some centres not stated)    17.5
N/C(=N\N=C\c1ccc([N+](=O)[O-])cc1)c1c(N)nc(=S)[nH]c1-c1ccc(Cl)cc1Cl    95.3
COc1cc(/C=C/C(=O)c2ccccc2)ccc1Oc1nc(Nc2ccc(F)cc2)nc(N(C)C)n1    13
Nc1cc2ccccc2c(=O)n1NC(=O)c1ccc(I)cc1    101
C=C1CC[C@@H]2[C@]3(C)COC(c4cn[nH]c4-c4ccc(C)cc4)O[C@@H]3CC[C@@]2(C)[C@@H]1C/C=C1/C(=O)OCC1O (some centres not stated)    39.4
COc1cc(C2CC(c3ccc(S(=O)(=O)NCCNc4nc(Nc5ccc(F)cc5)nc(N(C)C)n4)cc3)=Nc3c(N)nc(N)nc3N2)cc(OC)c1OC (configuration not stated)    56.2
O=C(NNc1nc2cc(F)ccc2n2c(C(=O)N3CCN(C4CC4)CC3)ccc12)c1ncccn1    27.3

Q: Item under review: C=C1CC[C@@H]2[C@]3(C)COC(c4cn[nH]c4-c4cccc(Br)c4)O[C@@H]3CC[C@@]2(C)[C@@H]1C/C=C1/C(=O)OCC1O (some centres not stated) . Reported growth?
Result: -6.99

Q: Item under review: Cc1ccc(C2=NN(c3nc(-c4cc5ccccc5oc4=O)cs3)C(c3ccc(C)cc3)C2)cc1 (configuration not stated) . Reported growth?
Result: 91.8

Q: Item under review: `COc1ccc(C(=O)/C=C/c2ccc(Cl)c(Cl)c2)cc1S(N)(=O)=O` . Reported growth?
Result: -54.7

Q: Item under review: CC1(C)CC[C@]2(C(=O)O)CC[C@]3(C)C(=CCC4[C@@]5(C)C[C@@H](O)[C@@H]6OC(c7ccccc7Br)OC[C@@]6(C)C5CC[C@]43C)C2C1 (some centres not stated) . Reported growth?
Result: 20.4

Q: Item under review: `Cc1cc(C)cc(C(=O)Nc2cccc(-c3cn(-c4ccc(S(N)(=O)=O)cc4)nn3)c2)c1` . Reported growth?
Result: 35
